Measurement Target: NLRP3 (Homo sapiens)
Sequence (Q96P20 whole entry): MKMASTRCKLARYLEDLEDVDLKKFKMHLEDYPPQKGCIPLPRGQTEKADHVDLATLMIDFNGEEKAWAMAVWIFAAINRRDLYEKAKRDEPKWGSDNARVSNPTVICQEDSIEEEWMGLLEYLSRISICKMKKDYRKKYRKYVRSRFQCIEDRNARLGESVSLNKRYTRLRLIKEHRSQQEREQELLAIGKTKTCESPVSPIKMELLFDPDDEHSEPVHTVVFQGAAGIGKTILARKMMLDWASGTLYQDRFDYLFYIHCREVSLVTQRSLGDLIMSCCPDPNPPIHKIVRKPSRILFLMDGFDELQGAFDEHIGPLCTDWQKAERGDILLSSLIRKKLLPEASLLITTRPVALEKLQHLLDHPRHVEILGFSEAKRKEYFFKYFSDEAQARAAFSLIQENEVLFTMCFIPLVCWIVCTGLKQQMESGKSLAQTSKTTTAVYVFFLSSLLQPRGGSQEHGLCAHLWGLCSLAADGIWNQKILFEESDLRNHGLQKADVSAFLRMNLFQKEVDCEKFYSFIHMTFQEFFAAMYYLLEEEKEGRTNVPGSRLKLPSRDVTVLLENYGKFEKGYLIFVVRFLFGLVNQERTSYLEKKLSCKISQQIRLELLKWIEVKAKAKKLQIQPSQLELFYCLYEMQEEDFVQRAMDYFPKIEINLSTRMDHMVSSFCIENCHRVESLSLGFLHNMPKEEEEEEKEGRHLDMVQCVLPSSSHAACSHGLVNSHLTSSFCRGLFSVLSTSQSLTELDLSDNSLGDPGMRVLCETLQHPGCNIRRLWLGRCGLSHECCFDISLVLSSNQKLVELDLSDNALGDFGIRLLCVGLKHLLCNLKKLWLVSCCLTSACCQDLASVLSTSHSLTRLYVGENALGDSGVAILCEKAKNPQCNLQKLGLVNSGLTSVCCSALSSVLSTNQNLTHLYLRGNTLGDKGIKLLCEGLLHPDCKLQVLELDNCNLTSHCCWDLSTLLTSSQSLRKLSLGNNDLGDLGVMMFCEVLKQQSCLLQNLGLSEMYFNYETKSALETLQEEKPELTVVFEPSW
Assay Details: THP-1 cells pyroptosis assay (LPS + nigericin, resazurin readout)
Assay type: cell-based
Design: Seed THP-1 cells (25,000 cells/well) containing 1.0 μg/ml LPS; host or cells: THP-1 cells
Measurement Setup: NLRP3 inhibitory activity, 1.0 μg/ml LPS, 3 hrs compound, nigericin 5 μM 1 hr
Items are presented alongside their recorded IC50.

Compound String	IC50
CC(C)c1cccc2c1CC(=O)NS(=O)(=O)c1cc(CN(C)C)n(n1)CCCCCOc1cc-2ccn1	5 to 10 µM
CC(C)c1cc(F)cc2c1CC(=O)NS(=O)(=O)c1nn(cc1F)CCOc1cc-2ccn1	1 to 5 µM
CC(C)c1cc(F)cc2c1CC(=O)NS(=O)(=O)c1cnn(c1)CCOc1cc-2ccn1	1 to 5 µM
CC(C)c1cc(F)cc2c1CC(=O)NS(=O)(=O)c1nn(cc1F)C(C)(C)COc1cc-2ccn1	0.1 to 0.5 µM
CC(C)c1cc(F)cc2c1CC(=O)NS(=O)(=O)c1cnn(c1)C(C)(C)CNc1cc-2ccn1	≤ 0.1 µM
CC(C)c1cc(F)cc2c1CC(=O)NS(=O)(=O)c1nn(cc1F)C1(CC1)COc1cc-2ccn1	0.5 to 1 µM
CC(C)c1cc(F)cc2c1CC(=O)NS(=O)(=O)c1cc(ccc1F)CCOc1cc-2ccn1	1 to 5 µM
CC(C)c1cc(F)cc2c1CC(=O)NS(=O)(=O)c1cccnc1OCCCOc1cc-2ccn1	1 to 5 µM
Cc1ccc(C(C)C)c2c1-c1ccnc(c1)OCC(C)(C)n1cc(F)c(n1)S(=O)(=O)NC(=O)C2	0.5 to 1 µM
CC(C)c1cccc2c1CC(=O)NS(=O)(=O)c1ccn(n1)CCOc1cc-2cnn1	1 to 5 µM
CC(C)c1cc(F)cc2c1CC(=O)NS(=O)(=O)c1nn(c(C(=O)N3CCN(C)CC3)c1F)C(C)(C)COc1cc-2ccn1	0.5 to 1 µM
CC(C)c1cccc2c1CC(=O)NS(=O)(=O)c1ccn(n1)CCOc1cc-2ccn1	1 to 5 µM
CC(C)c1cccc2c1CC(=O)NS(=O)(=O)c1cccc(c1)C(C)(C)COc1cc-2ccn1	1 to 5 µM
Cc1nn2c(C)c1S(=O)(=O)NC(=O)Cc1c(cc(F)cc1C(C)C)-c1ccnc(c1)OCC2(C)C	5 to 10 µM
CC(C)c1c(F)c(OC(F)F)cc2c1CC(=O)NS(=O)(=O)c1cnn(c1)C(C)(C)COc1cc-2ccn1	0.5 to 1 µM
CC(C)(O)c1cc2cc(c1)S(=O)(=O)NC(=O)Cc1c(ccc3c1CCC3)-c1ccnc(c1)OCC2	0.5 to 1 µM

====

Measurement Target: NLRP3 (Homo sapiens)
Assay Details: THP-1 cells pyroptosis assay (LPS + nigericin, resazurin readout)
Type: cell-based
Design: Seed THP-1 cells (25,000 cells/well) containing 1.0 μg/ml LPS; host or cells: THP-1 cells
Measurement Setup: NLRP3 inhibitory activity, 1.0 μg/ml LPS, 3 hrs compound, nigericin 5 μM 1 hr

Molecule	IC50
COCc1cc2c(c(C(C)C)c1)CC(=O)NS(=O)(=O)c1cnn(c1)C(C)(C)COc1cc-2ccn1 [Example 51]	≤ 0.1 µM
Cc1ccc(C(C)C)c2c1-c1ccnc(c1)OCCn1cc(F)c(n1)S(=O)(=O)NC(=O)C2 [Example 13]	1 to 5 µM
CC(C)c1cc(F)cc2c1CC(=O)NS(=O)(=O)c1nn(c(C(=O)N(C)C)c1F)C(C)(C)COc1cc-2ccn1 [Example 39]	1 to 5 µM
CC(C)c1cc(F)cc2c1CC(=O)NS(=O)(=O)c1nn(c(CN3CCN(C)CC3)c1F)C(C)(C)COc1cc-2ccn1 [Example 53]	≤ 0.1 µM
CC(C)c1cc(F)cc2c1CC(=O)NS(=O)(=O)c1cc(cc(C3CC3)c1)CCOc1cc-2ccn1 [Example 30]	0.5 to 1 µM
CC(C)c1cc(F)cc2c1CC(=O)NS(=O)(=O)c1nn(c(CN3CCOCC3)c1F)C(C)(C)COc1cc-2ccn1 [Example 55]	0.1 to 0.5 µM
CC(C)c1cccc2c1CC(=O)NS(=O)(=O)N1CCCC(C1)N(C)CCOc1cc-2ccn1 (stereo not drawn) [Example 45]	1 to 5 µM
CC(C)c1cccc2c1CC(=O)NS(=O)(=O)c1nn(cc1F)CCOc1cc-2ccn1 [Example 8]	1 to 5 µM
COCc1cc2c(c(C(C)C)c1F)CC(=O)NS(=O)(=O)c1cnn(c1)C(C)(C)COc1cc-2ccn1 [Example 52]	0.1 to 0.5 µM
CC(C)c1cc(F)cc2c1CC(=O)NS(=O)(=O)c1cc(C(=O)N(C)C)n(n1)C(C)(C)COc1cc-2ccn1 [Example 41]	1 to 5 µM
CCN1CCc2c3nn(c2C1)C(C)(C)COc1cc(ccn1)-c1cc(F)cc(C(C)C)c1CC(=O)NS3(=O)=O [Example 40]	1 to 5 µM
CC(C)c1cccc2c1CC(=O)NS(=O)(=O)c1nn(cc1F)-c1ncccc1COc1cc-2ccn1 [Example 38]	1 to 5 µM
